# study-system: T1, cynomolgus IL12Rβ1 (cynomolgus, UniProt A0A2K5VWV1 24-662)
# T1 construct: whole, on cells; also called cyno IL12Rβ1; Cyno IL-12Rβ1
# assay: FACS on Baf3 cells transfected with cyno IL12Rβ1, IgG4
readout-name: pEC50
Bear in mind: pEC50 is minus log10 of a mol/L concentration; give just that figure.

Notebook: MOR05271 IgG4 (antibody, V domains shown, IgG4) VH: QVQLKESGPALVKPTQTLTLTCTFSGFSLSTSTMGVSWIRQPPGKALEWLAWIYWDDDKDYSTSLKSRLTISKDTSKNQVVLTMTNMDPVDTATYYCARANPDLGYFDYWGQGTLVTVSS VL: DIALTQPASVSGSPGQSITISCTGTSSDLGESNYVSWYQQHPGKAPKVMIYDVNKRPSGVSNRFSGSKSGNTASLTISGLQAEDEADYYCGSYDEEDNVFGGGTKLTVLG , pEC50 read as 10.14
